Catalogue of compounds with associated Specificity ratio (SRcytotoxicity) SRPPARγ
- tgt: Peroxisome proliferator-activated receptor γ (Homo sapiens, UniProt P37231)
- Sequence (P37231 238-505 limits assumed): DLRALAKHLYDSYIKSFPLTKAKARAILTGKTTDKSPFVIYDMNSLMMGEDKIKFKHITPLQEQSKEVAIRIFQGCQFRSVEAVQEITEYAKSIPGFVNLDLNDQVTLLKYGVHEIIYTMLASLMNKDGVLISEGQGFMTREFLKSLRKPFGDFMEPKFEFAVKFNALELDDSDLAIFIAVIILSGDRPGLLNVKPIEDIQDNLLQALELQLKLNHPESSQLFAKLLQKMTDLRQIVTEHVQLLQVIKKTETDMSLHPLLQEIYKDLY
- assay procedure: cell-based
- study conditions: against experimental cytotoxicity
Lab note: write the figure by itself, no unit.

compound	quantitative readout
Cc1cc(Cc2cc(C)c(O)c(C)c2)cc(C)c1O [TMBPF, Bis(3,5-dimethyl-4-hydroxyphenyl)methane]	8.97
CC(C)c1cc(C(C)(C)c2ccc(O)c(C(C)C)c2)ccc1O	54.95
O=S(=O)(c1ccc(O)cc1)c1ccc(OCc2ccccc2)cc1 [BPS-MPE, 4-[4-(benzyloxy)benzenesulfonyl]phenol]	570.13
Cc1ccc(S(=O)(=O)NC(=O)Nc2ccc(Cc3ccc(NC(=O)NS(=O)(=O)c4ccc(C)cc4)cc3)cc2)cc1	121.09
Cc1ccc(S(=O)(=O)NC(=O)Nc2cccc(OS(=O)(=O)c3ccc(C)cc3)c2)cc1	28.39
CC(C)(c1ccc(O)c(-c2ccccc2)c1)c1ccc(O)c(-c2ccccc2)c1 [BPPH, 2,2-Bis(2-hydroxy-5-biphenylyl)propane]	12.47

Proceed to the following item.
Ask: Consider the compound O=C(OCc1ccccc1)c1ccc(O)cc1 [BzPB, Benzyl 4-hydroxybenzoate] and give its measured Specificity ratio (SRcytotoxicity) SRPPARγ.
Reply: 22.95

----------
Catalogue of compounds with associated Cparent-Ratio Rep.1
- assay procedure: Abiotic CYP (aCYP) oxidation, remaining parent compound (Cparent-Ratio)
- study conditions: Table S9, replicate 1, as fraction
Lab note: write the figure by itself, no unit.

Here are 8 compounds together with their reported answers.
compound	quantitative readout
Cc1ccc(S(=O)(=O)NC(=O)Nc2cccc(OS(=O)(=O)c3ccc(C)cc3)c2)cc1	0.67
CC(C)(c1ccc(O)cc1)c1ccc(O)cc1 [BPA, 4,4'-(Propane-2,2-diyl)diphenol, reference compound]	0.86
O=S(=O)(c1ccc(O)cc1)c1ccccc1O	1.08
O=S(=O)(c1ccc(O)cc1)c1ccc(OCc2ccccc2)cc1 [BPS-MPE, 4-[4-(benzyloxy)benzenesulfonyl]phenol]	1.19
CC(C)c1cc(C(C)(C)c2ccc(O)c(C(C)C)c2)ccc1O	0.68
CC1(C)[C@H](O)C(C)(C)[C@H]1O	0.90
CC(C)Oc1ccc(S(=O)(=O)c2ccc(O)cc2)cc1	1.15
CC(C)(c1ccc(O)c(-c2ccccc2)c1)c1ccc(O)c(-c2ccccc2)c1 [BPPH, 2,2-Bis(2-hydroxy-5-biphenylyl)propane]	0.90

Ask: Consider the compound O=C(OCc1ccccc1)c1ccc(O)cc1 [BzPB, Benzyl 4-hydroxybenzoate] and give its measured Cparent-Ratio Rep.1.
Reply: 1.16

Ask: Consider the compound CC1(C)C(O)C(C)(C)C1O (racemic) and give its measured Cparent-Ratio Rep.1.
Reply: 0.95

Ask: Consider the compound Cc1cc(Cc2cc(C)c(O)c(C)c2)cc(C)c1O [TMBPF, Bis(3,5-dimethyl-4-hydroxyphenyl)methane] and give its measured Cparent-Ratio Rep.1.
Reply: 0.59

Ask: Consider the compound COC(=O)C(c1ccc(O)cc1)c1ccc(O)cc1 [Bz, Methyl bis(4-hydroxyphenyl)acetate] and give its measured Cparent-Ratio Rep.1.
Reply: 1.14

Ask: Consider the compound Cc1ccc(S(=O)(=O)NC(=O)Nc2ccc(Cc3ccc(NC(=O)NS(=O)(=O)c4ccc(C)cc4)cc3)cc2)cc1 and give its measured Cparent-Ratio Rep.1.
Reply: 0.27
